Reference source: patent US6750228B1

- tgt: MMP-13 (Homo sapiens)
- Construct: made in house; host or cells: baculovirus / insect cells
- procedure-details: biochemical
- applied-conditions: recombinant human MMP-13, MCA peptide substrate 4 μM, pH 7.5, room temperature; read-out: MMP-13 IC50
Hi there, I'd appreciate the recorded pIC50 for every entry that follows.
Reminder that pIC50 is minus the log10 of a molar concentration.

Exam item: I would be grateful if you could share the reported pIC50 for COc1cccc(NC(=O)C2CCN(c3ccc(S(=O)(=O)C4(C(=O)NO)CCOCC4)cc3)CC2)c1 [Example 72] .
Marked response: 7.89

Exam item: Thanks! And O=C(c1ccccc1)N1CCC(C(=O)NO)(S(=O)(=O)c2ccc(Oc3ccc(C(F)(F)F)cc3)cc2)CC1 [Example 92] ?
Marked response: 9.10

Exam item: Thanks! And Cc1cccc(COC2CCC(Oc3ccc(S(=O)(=O)C4(C(=O)NO)CCOCC4)cc3)C2)c1 (stereo not shown) [Example 651] ?
Marked response: 7.86

Exam item: Thanks! And O=C(NO)C1(S(=O)(=O)c2ccc(N3CCC(OCc4ccccc4Cl)CC3)cc2)CCOCC1 [Example 574] ?
Marked response: 7.97

Exam item: Thanks! And CC1CC(C)CN(C(=O)C2CCN(c3ccc(S(=O)(=O)C4(C(=O)NO)CCN(C(=O)Cn5cncn5)CC4)cc3)CC2)C1 (stereo not shown) [Example 311] ?
Marked response: 6.92

Exam item: Thanks! And N#Cc1cccc(S(=O)(=O)N2CCN(c3ccc(S(=O)(=O)C4(C(=O)NO)CCOCC4)cc3)CC2)c1 [Example 672] ?
Marked response: 8.17

Exam item: Thanks! And O=C(NO)C1(S(=O)(=O)c2ccc(N3CCC(OCc4ccc(F)c(C(F)(F)F)c4)CC3)cc2)CCN(C2CC2)CC1 [Example 408] ?
Marked response: 7.60

====

- tgt: MMP-2 (Homo sapiens, UniProt P08253)
- Construct: made in house; provided by Dr. Gregory Goldberg, Washington University
- Sequence (P08253 110-660): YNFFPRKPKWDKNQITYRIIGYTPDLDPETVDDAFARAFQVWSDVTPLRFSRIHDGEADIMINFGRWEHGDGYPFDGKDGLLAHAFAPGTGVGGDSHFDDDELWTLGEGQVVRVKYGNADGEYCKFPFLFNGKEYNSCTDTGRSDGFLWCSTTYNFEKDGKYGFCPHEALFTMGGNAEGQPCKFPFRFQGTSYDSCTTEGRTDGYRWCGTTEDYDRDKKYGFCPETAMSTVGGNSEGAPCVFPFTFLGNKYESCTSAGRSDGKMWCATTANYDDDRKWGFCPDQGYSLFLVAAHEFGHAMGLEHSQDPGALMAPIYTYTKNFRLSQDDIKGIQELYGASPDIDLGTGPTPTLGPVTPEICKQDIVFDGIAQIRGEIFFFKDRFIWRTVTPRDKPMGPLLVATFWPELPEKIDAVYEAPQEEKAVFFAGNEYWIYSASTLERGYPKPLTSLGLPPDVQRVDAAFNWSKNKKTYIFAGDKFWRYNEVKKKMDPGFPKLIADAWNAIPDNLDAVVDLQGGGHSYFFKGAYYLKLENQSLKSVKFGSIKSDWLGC
- procedure-details: biochemical
- applied-conditions: recombinant human MMP-2, MCA peptide substrate 4 μM, pH 7.5, room temperature; read-out: MMP-2 IC50
quantity-name: IC50

Exam item: I would be grateful if you could share the reported IC50 for O=C(NO)C1(S(=O)(=O)c2ccc(Oc3ccc(OC(F)(F)F)cc3)cc2)CCN(c2ccncc2)CC1 [Example 391] .
Marked response: < 0.1 nM

Exam item: Thanks! And O=C(c1ccccc1)N1CCC(C(=O)NO)(S(=O)(=O)c2ccc(Oc3ccc(OC(F)(F)F)cc3)cc2)CC1 [Example 91] ?
Marked response: < 0.1 nM

Exam item: Thanks! And O=C(NO)C1(S(=O)(=O)c2ccc(N3CC4CC3CN4Cc3ccccc3)cc2)CCOCC1 (stereo not drawn) [Example 493] ?
Marked response: > 10000 nM

====

- tgt: MMP-2 (Homo sapiens)
- Construct: made in house; provided by Dr. Gregory Goldberg, Washington University
- procedure-details: biochemical
- applied-conditions: recombinant human MMP-2, MCA peptide substrate 4 μM, pH 7.5, room temperature; read-out: MMP-2 IC50
pIC50: −log10 of the molar value.
Hi there, I'd appreciate the recorded pIC50 for every entry that follows.

Exam item: I would be grateful if you could share the reported pIC50 for CCOC(=O)CN1CCN(CC(=O)N2CCC(C(=O)NO)(S(=O)(=O)c3ccc(N4CCC(C(=O)N5CC(C)CC(C)C5)CC4)cc3)CC2)CC1 (stereo not drawn) .
Marked response: < 5.00

Exam item: Thanks! And O=C(Nc1c(F)cccc1F)N1CCC(C(=O)NO)(S(=O)(=O)c2ccc(Oc3ccc(OC(F)(F)F)cc3)cc2)CC1 ?
Marked response: > 10.00

Exam item: Thanks! And CC1CC(C)CN(C(=O)C2CCN(c3ccc(S(=O)(=O)C4(C(=O)NO)CCN(C(=O)CNCCOCCO)CC4)cc3)CC2)C1 (stereo not drawn) ?
Marked response: < 5.00

Exam item: Thanks! And CC1CC(C)CN(C(=O)C2CCN(c3ccc(S(=O)(=O)C4(C(=O)NO)CCN(C(=O)CN(C)C)CC4)cc3)CC2)C1 (stereo not drawn) ?
Marked response: < 5.00

Exam item: Thanks! And CONCC(=O)N1CCC(C(=O)NO)(S(=O)(=O)c2ccc(N3CCC(C(=O)N4CC(C)CC(C)C4)CC3)cc2)CC1 (stereo not drawn) ?
Marked response: < 5.00

Exam item: Thanks! And CC1CC(C)CN(C(=O)C2CCN(c3ccc(S(=O)(=O)C4(C(=O)NO)CCN(C(=O)CN(CCCN(C)C)CCCN(C)C)CC4)cc3)CC2)C1 (stereo not drawn) ?
Marked response: < 5.00
